experiment: Bioavailability in mouse; format: ADME, organism-based; settings: in vivo
EXPERIMENTAL ENDPOINT: bioavailability (%)
Write it as a number; the unit % goes unstated.

Given item COc1cccc(-c2c(C)n(Cc3c(F)cccc3F)c(=O)n(C[C@H](N)CC(C)C)c2=O)c1F , the value recorded as its bioavailability is 6

Given item COc1cccc(-c2c(C)n(Cc3c(F)cccc3F)c(=O)n(C[C@@H](N)Cc3ccccc3)c2=O)c1F , the value recorded as its bioavailability is 11

Given item COc1cccc(-c2c(C)n(Cc3c(F)cccc3F)c(=O)n(C[C@H](N)C3CCCCC3)c2=O)c1F , the value recorded as its bioavailability is 11

Given item COc1cccc(-c2c(C)n(Cc3c(F)cccc3F)c(=O)n(C[C@H](C)NCc3ccccc3)c2=O)c1F , the value recorded as its bioavailability is 3

Given item CN[C@@H](Cc1ccccc1)Cn1c(=O)c(-c2cccc(OC)c2F)c(C)n(Cc2c(F)cccc2F)c1=O , the value recorded as its bioavailability is 42

* * *

molecular target: Gonadotropin-releasing hormone receptor (Homo sapiens)
EXPERIMENTAL ENDPOINT: Ki (nM)
Write it as a number; the unit nM goes unstated.

Given item CN[C@@H](Cc1ccccc1)Cn1c(=O)c(-c2cccc(OC)c2F)c(C)n(Cc2c(F)cccc2F)c1=O , the value recorded as its Ki is 8.1

Given item COc1cccc(-c2c(C)n(Cc3c(F)cccc3F)c(=O)n(C[C@@H](CC(C)C)NC(C)C)c2=O)c1F , the value recorded as its Ki is 12

Given item COc1cccc(-c2c(C)n(Cc3c(F)cccc3F)c(=O)n(C[C@@H](N)CCc3ccccc3)c2=O)c1F , the value recorded as its Ki is 965

* * *

For each entry below, report its Vd value.
assay: Volume of distribution in mouse; format: ADME, organism-based; details: in vivo
Write it as a number; the unit L/kg goes unstated.

Given item CN[C@@H](Cc1ccccc1)Cn1c(=O)c(-c2cccc(OC)c2F)c(C)n(Cc2c(F)cccc2F)c1=O , the value recorded as its Vd is 6.9

Given item COc1cccc(-c2c(C)n(Cc3c(F)cccc3F)c(=O)n(C[C@H](N)CC(C)C)c2=O)c1F , the value recorded as its Vd is 3.9

Given item COc1cccc(-c2c(C)n(Cc3c(F)cccc3F)c(=O)n(C[C@H](C)NCc3ccccc3)c2=O)c1F , the value recorded as its Vd is 7.9

Given item COc1cccc(-c2c(C)n(Cc3c(F)cccc3F)c(=O)n(C[C@@H](N)Cc3ccccc3)c2=O)c1F , the value recorded as its Vd is 4.9

Given item COc1cccc(-c2c(C)n(Cc3c(F)cccc3F)c(=O)n(C[C@H](N)C3CCCCC3)c2=O)c1F , the value recorded as its Vd is 7.3

* * *

test: Half life in mouse; assay type: ADME, organism-based; conditions: in vivo
EXPERIMENTAL ENDPOINT: half-life (min)
Write it as a number; the unit min goes unstated.

Given item COc1cccc(-c2c(C)n(Cc3c(F)cccc3F)c(=O)n(C[C@@H](N)Cc3ccccc3)c2=O)c1F , the value recorded as its half-life is 54

Given item CN[C@@H](Cc1ccccc1)Cn1c(=O)c(-c2cccc(OC)c2F)c(C)n(Cc2c(F)cccc2F)c1=O , the value recorded as its half-life is 48

Given item COc1cccc(-c2c(C)n(Cc3c(F)cccc3F)c(=O)n(C[C@H](N)CC(C)C)c2=O)c1F , the value recorded as its half-life is 42

Given item COc1cccc(-c2c(C)n(Cc3c(F)cccc3F)c(=O)n(C[C@H](N)C3CCCCC3)c2=O)c1F , the value recorded as its half-life is 78

Given item COc1cccc(-c2c(C)n(Cc3c(F)cccc3F)c(=O)n(C[C@H](C)NCc3ccccc3)c2=O)c1F , the value recorded as its half-life is 66

* * *

Target chain: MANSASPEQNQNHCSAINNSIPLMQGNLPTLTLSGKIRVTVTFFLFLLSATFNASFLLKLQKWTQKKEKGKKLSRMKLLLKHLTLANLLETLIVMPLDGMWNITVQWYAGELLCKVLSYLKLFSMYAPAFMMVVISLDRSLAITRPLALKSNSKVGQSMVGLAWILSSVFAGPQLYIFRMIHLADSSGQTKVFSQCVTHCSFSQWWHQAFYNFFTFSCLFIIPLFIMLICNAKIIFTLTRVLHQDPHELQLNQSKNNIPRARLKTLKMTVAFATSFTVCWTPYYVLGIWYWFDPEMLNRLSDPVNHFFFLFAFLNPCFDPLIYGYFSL
EXPERIMENTAL ENDPOINT: pKi
Lab note: report pKi as minus log10 of the concentration in molar units, number only.

Given item COc1cccc(-c2c(C)n(Cc3c(F)cccc3F)c(=O)n(C[C@H](N)C(C)C)c2=O)c1F , the value recorded as its pKi is 7.29

Given item COc1cccc(-c2c(C)n(Cc3c(F)cccc3F)c(=O)n(C[C@@H](N)C3CCCC3)c2=O)c1F , the value recorded as its pKi is 7.03

Given item COc1cccc(-c2c(C)n(Cc3c(F)cccc3F)c(=O)n(C[C@@H](C3CCCC3)N(C)C)c2=O)c1F , the value recorded as its pKi is 9.22

Given item COc1cccc(-c2c(C)n(Cc3c(F)cccc3F)c(=O)n(C[C@H](NC(C)C)C3CCCC3)c2=O)c1F , the value recorded as its pKi is 7.92

Given item COc1cccc(-c2c(C)n(Cc3c(F)cccc3F)c(=O)n(C[C@H](N)C3CCCC3)c2=O)c1F , the value recorded as its pKi is 8.00

Given item COc1cccc(-c2c(C)n(Cc3c(F)cccc3F)c(=O)n(C[C@@H](N)CC(C)C)c2=O)c1F , the value recorded as its pKi is 7.41

* * *

experiment: Clearance in mouse; type: ADME, organism-based; conditions: in vivo
EXPERIMENTAL ENDPOINT: clearance

Given item COc1cccc(-c2c(C)n(Cc3c(F)cccc3F)c(=O)n(C[C@@H](N)Cc3ccccc3)c2=O)c1F , the value recorded as its clearance is 65.6 mL/min/kg

Given item COc1cccc(-c2c(C)n(Cc3c(F)cccc3F)c(=O)n(C[C@H](N)C3CCCCC3)c2=O)c1F , the value recorded as its clearance is 65.4 mL/min/kg

Given item COc1cccc(-c2c(C)n(Cc3c(F)cccc3F)c(=O)n(C[C@H](C)NCc3ccccc3)c2=O)c1F , the value recorded as its clearance is 81.3 mL/min/kg

Given item COc1cccc(-c2c(C)n(Cc3c(F)cccc3F)c(=O)n(C[C@H](N)CC(C)C)c2=O)c1F , the value recorded as its clearance is 65.7 mL/min/kg

Given item CN[C@@H](Cc1ccccc1)Cn1c(=O)c(-c2cccc(OC)c2F)c(C)n(Cc2c(F)cccc2F)c1=O , the value recorded as its clearance is 97.2 mL/min/kg
